FYI, the data here is from the supplement of paper PMC10338343.

# Tested on: EfPiwi piRISC loaded with L1MC piRNA (26 nt)
# Method: pre-steady-state target cleavage rate (min^-1); auxiliary factor: 500 nM Ephydatia muelleri Gtsf1; guide: L1MC piRNA 5'p-UAACUAAAUACUAUGCAAGCUGUAGG; higher = faster piRNA-guided slicing of the target
Experimental Endpoint: pre-steady-state target cleavage rate

UCCUGCUACAGCUUGCAUAGUAAAUAGUAA; 0.00351
UCCUCCUACAGCUAGCAUAGUAUUUAGAAA; 0.00378
UCCUGGAACAGCUUGCAUAGUAUUUAGGUUA; 0.00305
UCCUGGAACAGCUUGCAUAGUCUUUAGUUA; 0.00979
UCCUCCUACAGCUUGCAUAGUAUUUACAAA; 0.00422
UCCUGGAUGUUCUUGCAUAGUAUUUAGUUA; 0.173
UCCUGCUAGAGCUUCCAUAGUAUUUAGUUA; 0.00239
UCCUCCUACAGCUUGCAUAGAAUUUACAAA; 0.00295

pre-steady-state target cleavage rate measured on UCCUGGAUCAGCUUGCAUAGUUUUUAGUAA = 0.00477

pre-steady-state target cleavage rate measured on UCCUCCUACAGCUUGCAUAGUAUAAAGAAA = 0.00289

pre-steady-state target cleavage rate measured on UCCUGGAUCAGCUUGCAUGGUAUUUAGUUA = 0.0193

pre-steady-state target cleavage rate measured on UCCUGGUACAGCUUGUAUAGUAUUUAGUUA = 0.0177

pre-steady-state target cleavage rate measured on UCCUGGAUGUCGAUGUAUAGUAUUUAGUUA = 0.00398

pre-steady-state target cleavage rate measured on UCCUCCUACAGCUUGCAUAGUAUAAUGAAA = 0.00235

pre-steady-state target cleavage rate measured on UCCUGGAACAGCUUGCAUUGUAUUUAGAAA = 0.00376

pre-steady-state target cleavage rate measured on UCCUCCUACAGCUUGCAUAAGUAUUUAGUUA = 0.00345

pre-steady-state target cleavage rate measured on UCCUCCUACAGCUUUCAUAGUAUUUAGUUA = 0.00691

----------
# Test system: MILI (PIWIL2) piRISC loaded with L1MC piRNA (26 nt);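 further: 1 nM active piRISC with 0.1 nM target library at 33 °C single turnover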
# Method: pre-steady-state target cleavage rate (min^-1); guide: L1MC piRNA 5'p-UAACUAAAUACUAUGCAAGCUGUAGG; higher = faster piRNA-guided slicing of the target
# Stated Conditions: auxiliary factor: none (no GTSF1)
Recorded pre-steady-state target cleavage rate determines the group label, using LOW: < 0.006; MEDIUM: ≥ 0.006 and < 0.008; HIGH: ≥ 0.008

Field: example entries. Status: answers known.
UCCUGCUAGUCCUUGCAUAGUAUUUAGUUA; MEDIUM
UCCUGCAUCAGCUUGCAUAGUAUUUAGUAA; LOW
UCCUGGAUGUGGUUGCAUAGUAAUUAGUUA; MEDIUM

query: The entry to classify is UCCUGGAUGUCGAACGUAAGAUAUUUAGUUA ; which class holds it?
result: LOW

query: The entry to classify is UCCUGGAUCUAGCUUGCAUAGUAUUUAGUUA ; which class holds it?
result: MEDIUM

----------
# Tested on: MILI (PIWIL2) piRISC loaded with piRNA #1 (26 nt);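 further: 1 nM active piRISC with 0.1 nM target library at 33 °C single turnover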
# Method: pre-steady-state target cleavage rate (min^-1); guide: piRNA #1 5'p-UGAGGUAGUAGGUUGUAUAGUAUCCA; MIWI and MILI are mouse PIWI proteins and EfPiwi is from a freshwater sponge; tags in brackets are library labels; higher = faster piRNA-guided slicing of the target
# Stated Conditions: auxiliary factor: 500 nM mouse GTSF1
Experimental Endpoint: pre-steady-state target cleavage rate
// response body must contain only the number

GGAGACCUUACUAUACAUCCUACUACCUCA; 0.292
GGAGACCUAUGUAUACUAGCUACUACCUCA; 0.0336
GGAGAGGAUACAAUACAACCUAGUACCUCA; 0.0411
GGAGACGAUACUAUACAACAUACUACCUCA; 0.0988
GGAGACCUAAGUAUACAACCUACUACCACA; 0.0885

pre-steady-state target cleavage rate measured on GGAGUGGAUUCUAUACAACCUUCUACCUCA = 0.00777

pre-steady-state target cleavage rate measured on GGAGAGGAUACUAUACAACCUCCUACCUCA = 0.0496

pre-steady-state target cleavage rate measured on GGAGACCUAUGAUUACAAGCUACUACCACA = 0.0854

pre-steady-state target cleavage rate measured on GGAGACGAUACUAUACUACCAACUACCUCA = 0.00729

pre-steady-state target cleavage rate measured on GGAGACCUAUGAAUUCAACCUACUACCUCA = 0.00274

pre-steady-state target cleavage rate measured on GGAGACCAAACUAUUCAACCUACUACCUCA = 0.217

pre-steady-state target cleavage rate measured on GGAGACCUAUCUAUACUACCUACUACCACA = 0.117

pre-steady-state target cleavage rate measured on GGAGACCUUAGUAUACAACCUUCUACCUCA = 0.00489
